These measurements were taken from ChEMBL document CHEMBL1128814.

- Assay Target: Histamine H2 receptor (Cavia porcellus)
- Measurement Protocol: Histamine H2 receptor agonistic activity was evaluated by the inhibition of histamine-stimulated contraction in guinea pig atrium
- Assay type: functional, tissue-based
- Study Conditions: Cardiac atrium
The reader will find reported pD2 values listed item by item below.

Molecule	pD2
Fc1ccc(C(CCCNCCCc2c[nH]cn2)c2ccccn2)cc1 (centres undefined)	5.17
CN/C(=N\CCCC(c1ccc(Cl)c(Cl)c1)c1ccccn1)NCCCc1c[nH]cn1 (centres undefined)	5.58
Cc1ccc(CC(CC/N=C(\N)NCCCc2c[nH]cn2)c2ccccn2)cc1 (centres undefined)	5.81
N=C(NCCCc1c[nH]cn1)NCCCC(c1ccc(Cl)c(Cl)c1)c1ccccn1 (centres undefined)	6.67

In: Find the recorded pD2 belonging to Clc1ccc(C(CCC/N=C(/NCCCc2c[nH]cn2)NC2CCCCC2)c2ccccn2)cc1Cl (centres undefined) and report it.
Out: 4.65

In: Find the recorded pD2 belonging to N=C(CCC(c1ccccc1)c1ccccn1)NCCCc1c[nH]cn1 (centres undefined) and report it.
Out: 6.5

In: Find the recorded pD2 belonging to N=C(NCCCc1c[nH]cn1)NCCC(c1ccc(Cl)c(Cl)c1)c1ccccn1 (centres undefined) and report it.
Out: 8.19

In: Find the recorded pD2 belonging to N=C(NCCCc1c[nH]cn1)NCCC(c1cc(F)cc(F)c1)c1ccccn1 (centres undefined) and report it.
Out: 8.05

In: Find the recorded pD2 belonging to CN(CCC(c1ccc(F)cc1)c1ccccn1)C(=N)NCCCc1c[nH]cn1 (centres undefined) and report it.
Out: 5.4
